Below, each entry is listed alongside its reported growth.
test system: A549/ATCC NSCLC; test: NCI-60 one-dose screen, 48 h (100 = growth as untreated, 0 = no growth, -100 = all killed); details: 10 µM unless noted
This is part of a sample that, as a whole, favours compounds with a hit. Of some 83,000 tested, about 20% had one in any assay. The source made the active and inactive calls. Rule for the calls: active = growth percent below 10; inactive = the rest.

Below are worked cases with known answers.
* O=C1c2cccc(NCCN=Cc3ccccc3O)c2C(=O)c2c(NCCN=Cc3ccccc3O)cccc21 | 25.7% (inactive)
* O=C(N/N=C/c1cccc(O)c1O)c1ccccc1 | 6.43% (active)
* COc1ccc(C(=O)/C=C/c2cccc(Nc3ccnc4cc(Cl)ccc34)c2)cc1 | 29.4% (inactive)
* CCOc1cc(/C=C/C(=O)CC(=O)/C=C/c2ccc(OC(=O)CNCCN(CC)CC)c(OCC)c2)ccc1OC(=O)CNCCN(CC)CC | 12.4% (inactive)
* Nc1ccc(N=Nc2ccccc2)cc1[N+](=O)[O-] | 85.9% (inactive)
* Cc1ccc(C(=O)Cc2ccccc2)c(O)c1 | 102% (inactive)
* CC(=O)N1N=C(c2ccc(Nc3nc(NCCO)nc(NCCO)n3)cc2)CC1c1ccc(Cl)cc1 (stereo not given) | 78.6% (inactive)
* N#Cc1c(NC(=O)c2ccco2)[n+]([O-])c2ccccc2[n+]1[O-] | 99.7% (inactive)
* C1=C(Cc2ccccc2)n2cnc3ncnc(c32)S1 | 87.3% (inactive)
* Cc1ccc(N/N=C(/C(=O)c2ccc(Cl)cc2)c2nc(C)cc(=O)[nH]2)cc1 | 100% (inactive)

Exercise: Quick one: growth of COC(=O)c1cc2c(/C=C3/NC(=S)NC3=O)coc2n1C ?
Key: 104% (inactive)

---

Tested on: SK-OV-3 ovarian
Assay: NCI-60 one-dose screen, 48 h
Conditions: 10 µM unless noted
Method: Growth inhibition of the SK-OV-3 human tumor cell line is measured as a screen for anti-cancer activity. Cells are grown in 96 well plates and exposed to the test compound for 48 hours. Compounds are tested at a single concentration, which is 10^-5 M for most compounds. The reported endpoint is percent growth (GI% or GIPRCNT), where numbers from 0 - 100% represent growth inhibition, and numbers from -100% - 0 represent cell death. For example, a value of 40 represents 60% growth inhibition. […]
The panel holds about 83,000 compounds, 20% with a hit somewhere; the sample as a whole holds those more often. The source made the active and inactive calls. The calls were made as follows: active = growth percent below 10; inactive = the rest.
// one of active, inactive, no free text

For orientation, consider the following solved cases.
• C=C1CC[C@@H]2[C@](C)(COC(C)=O)[C@H](OC(C)=O)CC[C@@]2(C)[C@@H]1CC(NCc1ccccc1)C1=CCOC1=O (stereo not given in full) = inactive
• O=C(N/N=C/c1cccc(O)c1O)c1ccccc1 = inactive
• C[C@H]1C(=O)N2c3ccccc3[C@@]3(O)C[C@@H](n4cnc5ccccc5c4=O)C(=O)N1[C@@H]23 = inactive

Exercise: Which outcome did this test record for the compound N#Cc1ccccc1C#Cc1ccccc1C#Cc1ccc(OCCCCCCOc2ccc(C#Cc3ccccc3C#Cc3ccccc3C#N)cc2)cc1 ?
Key: inactive

Exercise: Which outcome was assigned to ICCC(c1ccccc1)(c1ccccc1)c1ccccc1 in this test?
Key: inactive

Exercise: Answer briefly: the call reported for O=C1/C(=C/c2ccc(F)cc2)Cc2ccccc21 in this assay.
Key: inactive

Exercise: # outcome recorded in this test, key = CC1C(C)N(C(=O)CCl)c2ccccc2N1C(=O)CCl (stereo not given)
Key: active

Exercise: Recorded test outcome, item CC(=O)Nc1c(Cl)cc2c(c1Cl)Cc1ccccc1-2
Key: inactive

Exercise: Just curious, what result did COc1cc(/C=C/C(=O)C(C(=O)/C=C/c2ccc(OC(=O)CCNC34CC5CC(CC(C5)C3)C4)c(OC)c2)C(=O)CCNC23CC4CC(CC(C4)C2)C3)ccc1OC(=O)CCNC12CC3CC(CC(C3)C1)C2 (stereo not given) get here?
Key: inactive

---

tested on: SK-OV-3 ovarian; experiment: NCI-60 one-dose screen, 48 h; settings: 10 µM unless noted
The panel holds about 83,000 compounds, 20% with a hit somewhere; the sample as a whole holds those more often. Active and inactive are the calls of the source. The calls were made as follows: active = growth percent below 10; inactive = the rest.
Respond using exactly one of the listed classes: 1 for active, -1 for inactive

Exercise: Which outcome did this test record for the compound Cc1cc(-c2ccccc2)cc(C)n1 ?
Key: -1

Exercise: Hi, do you know how COc1ccc(Oc2ccccc2NC(=O)CNC(=O)c2cccc3ccccc23)cc1 came out in this test?
Key: -1

Exercise: Recorded test outcome, item CC(=O)N1N=C(c2ccc3c(c2)OCO3)CC1c1c(C)nn(-c2ccccc2)c1N(C)Cc1ccccc1 (stereo unspecified)
Key: -1

Exercise: Look up the recorded call for CCC(=O)Nc1cc2c(cc1Cl)-c1ccccc1C2 in this test.
Key: -1

Exercise: Entry N#Cc1c(-c2ccccc2)cc(-c2ccccc2)n(CCCCC(=O)O)c1=O : call = ?
Key: -1

Exercise: Per the records of this test, what outcome belongs to COc1cccc(/C=N/Nc2nc3ccccc3s2)c1OC ?
Key: -1

Exercise: # lookup: test call for O=C(CNC(=O)c1cccc2ccccc12)Nc1ccccc1Oc1cccc(O)c1
Key: 1

Exercise: GET /call?item= C1=C(Cc2ccccc2)n2cnc3ncnc(c32)S1 returns the recorded outcome of this test.
Key: -1

---

Tested on: NCI/ADR-RES ovarian
Assay: NCI-60 one-dose screen, 48 h (100 = growth as untreated, 0 = no growth, -100 = all killed)
Details: 10 µM unless noted
Method: Growth inhibition of the NCI/ADR-RES human […] tumor cell line is measured as a screen for anti-cancer activity. Cells are grown in 96 well plates and exposed to the test compound for 48 hours. Compounds are tested at a single concentration, which is 10^-5 M for most compounds. The reported endpoint is percent growth (GI% or GIPRCNT), where numbers from 0 - 100% represent growth inhibition, and numbers from -100% - 0 represent cell death. For example, a value of 40 represents 60% growth inhibition. […]
This is part of a sample that, as a whole, favours compounds with a hit. Of some 83,000 tested, about 20% had one in any assay. Calls of active or inactive are those of the source. How the source made its calls: active means growth percent below 10; inactive means the rest.
measure: growth

Look over these answered cases.
• Cc1ccc2nc3c(n2c1)C(=O)C(=O)c1ccccc1-3 = -3.7% (active)
• Cc1nn(-c2ccccc2)cc1/C=C1\SC(N2CCCCC2)=NC1=O = 89.7% (inactive)
• COc1ccc(-c2nc3sc4c(c3c(=O)[nH]2)CCCCCC4)cc1 = 51.2% (inactive)
• CSc1nc2nc3c(nc2c(=O)n1C)C(=O)c1ccccc1C3=O = -4.99% (active)
• Cc1cc(-c2ccccc2)cc(C)n1 = 110% (inactive)

Exercise: So what's the measured growth for this one? CCOc1cc(CCNS(=O)(=O)c2ccc(C)cc2)c(C(C)=O)cc1OCC
Key: 66.3% [100 µM] (inactive)

Exercise: Form field: reported growth of O=Cc1ccccc1C(=O)O
Key: 104% (inactive)

Exercise: Using the record for O=C1/C(=C/c2cccc(Cl)c2)CCc2ccccc21 , report its growth.
Key: 100% (inactive)

Exercise: // query growth value for entry COP(=O)(OC)C(c1ccccc1)(c1ccccc1)c1ccccc1
Key: 95.9% (inactive)

Exercise: Request the reported growth associated with COc1ccc(C(=O)/C=C/c2cccc(Nc3ccnc4cc(Cl)ccc34)c2)cc1
Key: 21.3% (inactive)

Exercise: Need growth, item Cc1cc(=O)[nH]c(/C(=N/Nc2ccccc2)C(=O)c2ccc(Cl)cc2)n1
Key: 106% (inactive)

Exercise: Dear colleague, I am looking for the recorded growth of the following compound: O=C(/C=C/c1cccc(Nc2ccnc3cc(Cl)ccc23)c1)c1ccc(Cl)cc1
Key: 38.1% (inactive)

Exercise: Entry under review: CC(C)Cn1cnc2c(NCn3nc(-c4cc(Cl)cc(Cl)c4Cl)n(/N=C/c4ccc(Cl)cc4)c3=S)nc3ccccc3c21 . Reported growth?
Key: 56.3% (inactive)

Exercise: What value of growth has been recorded for this entry: c1ccc(CN=C(NCc2ccccc2)NCc2ccccc2)cc1
Key: 86% (inactive)

Exercise: Param item = CC1CC=CCC1C1OCC(C)(C)CO1 (configuration not stated) ; retrieve measured growth.
Key: 108% (inactive)

Exercise: Suppose we examine the compound CSc1nc(N)c2c(n1)N(C)C=NS2(=O)=O ; what growth value has been reported?
Key: 103% (inactive)

---

test system: OVCAR-4 ovarian; test: NCI-60 one-dose screen, 48 h; conditions: 10 µM unless noted
Compounds without any hit were thinned out: in the full panel of roughly 83,000, 20% have a hit. Active and inactive are the calls of the source. The calls were made as follows: active = growth percent below 10; inactive = the rest.
Valid outcomes are listed here; reply with one: 1 (active), 0 (inactive)

# count of solved cases: 5
- Cc1cc(-c2ccccc2)cc(C)n1: 0
- O=C1c2cccc(NCCN=Cc3ccccc3O)c2C(=O)c2c(NCCN=Cc3ccccc3O)cccc21: 1
- COC(=O)CC1=C(c2ccc([N+](=O)[O-])cc2)CCC1=O: 0
- COc1ccc2cc(-c3nc4ccccc4[nH]3)c(=O)oc2c1: 0
- O=C(N/N=C/c1cccc([N+](=O)[O-])c1)c1ccc(Br)o1: 0

Exercise: For Cn1cc(NC(=O)Nc2cc(C(=O)O)n(C)c2)cc1C(=O)O , what call appears in the results of this test?
Key: 0

Exercise: State the result this test recorded for CCOc1cc(CCNS(=O)(=O)c2ccc(C)cc2)c(C(C)=O)cc1OCC .
Key: 0

Exercise: In this assay, the call recorded for Cc1ccc(-c2c3c(N)c4c(nc3nc3c2c(C)nn3-c2ccccc2)CCC4)cc1 was what?
Key: 0

Exercise: Each molecule tested received a call. Report the one for NS(=O)(=O)c1cc2c(cc1Cl)NC=NS2(=O)=O .
Key: 0

Exercise: What classification did COc1cc(C2CC(c3ccc(C)cc3)=NN2C=O)ccc1OCCN(C)C (configuration not stated) end up with in this test?
Key: 0

Exercise: Dear all, I need the recorded test outcome for CCSc1nc(Nc2ccc(S(=O)(=O)Nc3ccon3)cc2)c(C#N)c(-c2cccc(Br)c2)n1 , thank you.
Key: 0
